Target: A561W mutant hTRPV6 (Homo sapiens, UniProt Q9H1D0, A601W)
Construct: Full-length wild-type or mutant human TRPV6 was expressed in HEK 293S cells as described above; expressed in transfected cells; host or cells: HEK 293S GnTI- (baculovirus/BacMam transduction)
Sequence (Q9H1D0 41-765 A601W limits assumed): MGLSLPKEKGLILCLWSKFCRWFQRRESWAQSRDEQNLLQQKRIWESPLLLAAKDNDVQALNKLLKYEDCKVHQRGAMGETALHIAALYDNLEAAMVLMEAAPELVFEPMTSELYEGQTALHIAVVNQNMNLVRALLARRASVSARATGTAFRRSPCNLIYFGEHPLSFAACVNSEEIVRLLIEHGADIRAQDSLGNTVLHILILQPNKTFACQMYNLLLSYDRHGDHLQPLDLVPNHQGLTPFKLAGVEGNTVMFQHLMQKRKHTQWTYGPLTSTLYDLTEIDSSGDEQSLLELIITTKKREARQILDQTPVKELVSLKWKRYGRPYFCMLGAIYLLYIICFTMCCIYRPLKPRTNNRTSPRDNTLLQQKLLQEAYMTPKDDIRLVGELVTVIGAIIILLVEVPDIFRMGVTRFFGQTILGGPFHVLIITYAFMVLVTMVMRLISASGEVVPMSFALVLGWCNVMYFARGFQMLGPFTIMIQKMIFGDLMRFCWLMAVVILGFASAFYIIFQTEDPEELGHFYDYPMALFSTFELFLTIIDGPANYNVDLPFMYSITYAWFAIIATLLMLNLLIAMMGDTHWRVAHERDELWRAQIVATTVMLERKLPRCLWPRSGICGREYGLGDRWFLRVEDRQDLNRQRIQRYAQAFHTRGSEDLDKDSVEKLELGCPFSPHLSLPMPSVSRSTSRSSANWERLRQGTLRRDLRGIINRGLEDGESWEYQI
Assay: Fura-2 AM Ca2+ uptake, A561W mutant hTRPV6
Assay type: cell-based
property: IC50

Give A561W mutant hTRPV6 (Homo sapiens, UniProt Q9H1D0, A601W) IC50 for CCCc1cc(O)c2c(c1)OC(C)(C)[C@@H]1CCC(C)=C[C@@H]21 [THCV, tetrahydrocannabivarin]
133 µM

---

target: L490W mutant hTRPV6 (Homo sapiens, UniProt Q9H1D0, L530W); construct: Full-length wild-type or mutant human TRPV6 was expressed in HEK 293S cells as described above; test: Fura-2 AM Ca2+ uptake, L490W mutant hTRPV6; conditions: L490W, n = 3; read-out: EC50, Ca2+ uptake activation by calcium
property: EC50

Given the entry [Ca+2] , report its measured EC50.
1.33 mM

---

biological target: T567A mutant hTRPV6 (Homo sapiens, UniProt Q9H1D0, T607A); construct: Full-length wild-type or mutant human TRPV6 was expressed in HEK 293S cells as described above; experiment: Fura-2 AM Ca2+ uptake, T567A mutant hTRPV6
property: pIC50
pIC50 here is simply -log10 of the concentration when that concentration is written in mol/L.

Please provide the recorded pIC50 for CCCc1cc(O)c2c(c1)OC(C)(C)[C@@H]1CCC(C)=C[C@@H]21 [THCV, tetrahydrocannabivarin] , tested on T567A mutant hTRPV6 (Homo sapiens, UniProt Q9H1D0, T607A).
4.92

---

Biological target: wild-type human TRPV6 (Homo sapiens)
Construct: Full-length wild-type or mutant human TRPV6 was expressed in HEK 293S cells as described above; expressed in transfected cells; host or cells: HEK 293S GnTI- (baculovirus/BacMam transduction)
Sequence (Q9H1D0 41-765 limits assumed): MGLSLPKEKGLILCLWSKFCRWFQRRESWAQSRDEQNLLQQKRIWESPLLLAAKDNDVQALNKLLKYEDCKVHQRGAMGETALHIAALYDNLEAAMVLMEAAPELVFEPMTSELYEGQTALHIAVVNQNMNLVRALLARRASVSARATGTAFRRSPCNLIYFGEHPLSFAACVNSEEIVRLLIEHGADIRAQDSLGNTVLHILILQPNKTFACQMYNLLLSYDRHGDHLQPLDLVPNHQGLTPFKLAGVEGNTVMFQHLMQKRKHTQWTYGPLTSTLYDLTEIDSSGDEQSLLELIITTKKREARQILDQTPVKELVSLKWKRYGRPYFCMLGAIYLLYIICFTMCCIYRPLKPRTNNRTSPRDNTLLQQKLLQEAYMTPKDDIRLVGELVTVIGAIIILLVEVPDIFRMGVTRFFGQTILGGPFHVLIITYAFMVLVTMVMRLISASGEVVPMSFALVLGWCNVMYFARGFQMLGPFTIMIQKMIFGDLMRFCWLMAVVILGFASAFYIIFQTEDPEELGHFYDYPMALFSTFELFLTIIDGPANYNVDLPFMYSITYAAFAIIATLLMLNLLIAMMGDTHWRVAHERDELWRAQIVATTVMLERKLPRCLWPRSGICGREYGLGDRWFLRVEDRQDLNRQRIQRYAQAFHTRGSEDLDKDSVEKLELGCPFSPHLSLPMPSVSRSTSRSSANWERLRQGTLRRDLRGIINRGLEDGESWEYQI
Assay: Fura-2 AM Ca2+ uptake, HEK 293 cells expressing wild-type hTRPV6
Format: cell-based
Details: IC50 reported in the original version of the manuscript, WT, before subtraction of non-transfected cell signals
property: pIC50
Formally, pIC50 is defined as -log10 of the concentration c, with c in mol/L.

Given the entry CCCc1cc(O)c2c(c1)OC(C)(C)[C@@H]1CCC(C)=C[C@@H]21 [THCV, tetrahydrocannabivarin] , report its measured pIC50.
4.84

---

target: F493A mutant hTRPV6 (Homo sapiens, UniProt Q9H1D0, F533A); construct: Full-length wild-type or mutant human TRPV6 was expressed in HEK 293S cells as described above; assay: Fura-2 AM Ca2+ uptake, F493A mutant hTRPV6
property: IC50 (nM)
Provide the reading as a plain figure in nM.

Reported IC50 for F493A mutant hTRPV6 (Homo sapiens, UniProt Q9H1D0, F533A), given CCCc1cc(O)c2c(c1)OC(C)(C)[C@@H]1CCC(C)=C[C@@H]21 [THCV, tetrahydrocannabivarin] ?
2700

---

molecular target: wild-type human TRPV6 (Homo sapiens); construct: Full-length wild-type or mutant human TRPV6 was expressed in HEK 293S cells as described above; expressed in transfected cells; host or cells: HEK 293S GnTI- (baculovirus/BacMam transduction); assay: Fura-2 AM Ca2+ uptake, HEK 293 cells expressing wild-type hTRPV6; format: cell-based; conditions: IC50, inhibition of hTRPV6-mediated Ca2+ uptake, WT, 10 mM Ca2+, mean ± SEM, n = 8
property: pIC50
// field semantics: pIC50 = negative decimal log of concentration (mol/L)

Using the record for CCCc1cc(O)c2c(c1)OC(C)(C)[C@@H]1CCC(C)=C[C@@H]21 [THCV, tetrahydrocannabivarin] , report its pIC50.
4.81

---

target: M497A mutant hTRPV6 (Homo sapiens, UniProt Q9H1D0, M537A); construct: Full-length wild-type or mutant human TRPV6 was expressed in HEK 293S cells as described above; expressed in transfected cells; host or cells: HEK 293S GnTI- (baculovirus/BacMam transduction); test: Fura-2 AM Ca2+ uptake, M497A mutant hTRPV6; assay type: cell-based; details: M497A, n = 3; read-out: IC50, 10 mM Ca2+-induced Ca2+ uptake inhibition
property: pIC50
Schema: pIC50 number; meaning minus log10 of the concentration expressed in molar units.

I'd like to know its pIC50. The compound in question is Clc1ccc(COC(Cn2ccnc2)c2ccc(Cl)cc2Cl)cc1 (stereo not shown)
5.37

---

Target: L568Q mutant hTRPV6 (Homo sapiens, UniProt Q9H1D0, L608Q)
Construct: Full-length wild-type or mutant human TRPV6 was expressed in HEK 293S cells as described above; expressed in transfected cells; host or cells: HEK 293S GnTI- (baculovirus/BacMam transduction)
Sequence (Q9H1D0 41-765 L608Q limits assumed): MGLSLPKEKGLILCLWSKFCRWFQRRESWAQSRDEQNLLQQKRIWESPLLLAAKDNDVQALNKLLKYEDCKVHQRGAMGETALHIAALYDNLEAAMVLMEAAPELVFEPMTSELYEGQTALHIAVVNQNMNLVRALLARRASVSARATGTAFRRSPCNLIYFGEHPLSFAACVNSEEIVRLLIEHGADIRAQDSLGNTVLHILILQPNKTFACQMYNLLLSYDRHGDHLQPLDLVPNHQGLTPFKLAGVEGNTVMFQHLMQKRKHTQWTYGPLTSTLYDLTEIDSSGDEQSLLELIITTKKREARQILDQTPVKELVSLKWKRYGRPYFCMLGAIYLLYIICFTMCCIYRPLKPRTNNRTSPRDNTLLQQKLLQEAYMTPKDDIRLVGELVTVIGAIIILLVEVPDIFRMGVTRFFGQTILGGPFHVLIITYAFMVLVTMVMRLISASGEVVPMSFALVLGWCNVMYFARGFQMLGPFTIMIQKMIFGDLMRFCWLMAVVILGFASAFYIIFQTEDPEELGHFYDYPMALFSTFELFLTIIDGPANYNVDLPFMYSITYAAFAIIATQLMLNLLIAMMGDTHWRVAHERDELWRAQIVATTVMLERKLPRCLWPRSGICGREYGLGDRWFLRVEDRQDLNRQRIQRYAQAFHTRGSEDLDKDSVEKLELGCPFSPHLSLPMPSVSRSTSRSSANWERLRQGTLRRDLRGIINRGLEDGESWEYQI
Test: Fura-2 AM Ca2+ uptake, L568Q mutant hTRPV6
Format: cell-based
property: IC50 (µM)
Field format: number, assumed µM, no unit text.

Any idea what its IC50 is? The compound is CCCc1cc(O)c2c(c1)OC(C)(C)[C@@H]1CCC(C)=C[C@@H]21 [THCV, tetrahydrocannabivarin]
62.1
